Source of measurements: the supplement of paper PMC12645437

Molecular target: T1, CRBN, Q96SW2;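 further: pooled lentiviral library of zinc finger degron-EGFP fusions in mCherry-positive Jurkat cells, FACS-sorted after compound exposure, with degron abundance counted by next-generation sequencing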
T1 chain: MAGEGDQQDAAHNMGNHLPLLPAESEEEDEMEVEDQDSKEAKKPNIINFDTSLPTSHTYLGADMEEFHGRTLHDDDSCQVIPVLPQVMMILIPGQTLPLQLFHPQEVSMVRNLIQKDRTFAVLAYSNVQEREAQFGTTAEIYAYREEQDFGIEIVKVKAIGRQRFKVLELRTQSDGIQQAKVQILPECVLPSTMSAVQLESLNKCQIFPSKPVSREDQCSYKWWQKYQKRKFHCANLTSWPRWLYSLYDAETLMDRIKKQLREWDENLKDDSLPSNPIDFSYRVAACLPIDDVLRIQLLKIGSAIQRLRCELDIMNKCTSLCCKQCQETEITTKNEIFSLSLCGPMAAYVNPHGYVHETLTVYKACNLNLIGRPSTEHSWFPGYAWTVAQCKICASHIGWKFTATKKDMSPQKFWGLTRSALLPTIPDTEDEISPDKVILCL
Experiment: log2 fold change of degron read counts, EGFP-low vs EGFP+ sorted cells (limma voom), compound-induced degradation; higher = more compound-induced degradation of the degron-EGFP fusion; degrons are variants of IKZF1/3 zinc finger 2; compound dose not given here
Conditions: Jurkat; 18 h; compound: thalidomide
The full ranking holds about 8,300 sequences; the median of “log2 fold change of degron read counts, EGFP-low vs EGFP+ sorted cells (limma voom), compound-induced degradation” is about -1.1, and the highest 2% start at about 3.2. The list comes from a sample in which the highest values are over-represented; it also holds close analogues and randomly drawn sequences.
Give measured log2 fold change of degron read counts for each item. Keep answers brief.

> print(dat)
                              item.sequence  result
1  FMCPICGHYFTQKGNLLRHIKL [46F_47M_49P_50I_52G_53H_54Y_55F_67L_, Q9UKT9]    -1.8
2  FECEVCGAAFTQKGNLLRHIKL [46F_47E_49E_50V_52G_53A_54A_55F_67L_, Q9UKT9]    2.51
3  FVCEVCGAAFTQKGNLLRHIKL [46F_47V_49E_50V_52G_53A_54A_55F_67L_, Q9UKT9]    3.36

# evaluate next
QUERY: Look up log2 fold change of degron read counts: FLCEVCGAAFTQKGNLLRHIKL [46F_47L_49E_50V_52G_53A_54A_55F_67L_, Q9UKT9]
RESULT: 1.55
